Listed here: items and their measured apparent KD of MS2 coat protein.
System: MS2 coat protein
Test: apparent KD of MS2 coat protein; higher = weaker reporter binding
Conditions: Eterna round: R107; input ligand: tryptophan 2.4 mM
Write the value in nM as a bare number.

Previously resolved entries follow.
SEQUENCE_STRING | READOUT_KIND | TEST_VALUE
ACAUGAGGAUCACCCAUGUUCCUCAUUGAUACCAGUGAAUUUAGACGCCCUUGGCAGCGAGUUUUUUUAUAAGUUUUUUUUUUUU [6.J] | apparent KD of MS2 coat protein | 874
ACGACGCAUAGUGAUACCAGUAGAACAUGAGGAUCACCCAUGUCUGUGGCGCACCACCUCUGCCCUUGGCAGCACUAUGCGUCAG [SSTheo B #9] | apparent KD of MS2 coat protein | 14.1

If you can, please state the reported apparent KD of MS2 coat protein value of UUCAGCUAGUCGGCCGCCACUACUUGAGGAUCACCCAGGUAGGUCCACACUGCUUCGGCAGUGAGUAGGACCGGGACUAGCUGAG .
272

# iterate: AAGGAAAAGGCGGCCGCCACUGGAAAGGCGAAAGCCAAGAAAACAUGAGGAUCACCCAUGUCAUGUAGGACCGGGCCAAAAGGAA
23.7

# iterate: GGAUAGGACAGAAGGAGCGACAUGGCGACGAAAGUCGGACCUUCACAUGAGGAUCACCCAUGUCAGGUAGGUCGCUGUCCUAUCG [ArgXB 6 #MS2Gate #StaticStem]
46.1

# iterate: AUCCCGUGAGCGGCCGCCACUGGAGGCUUUGCGCGACAUGAGGAUCACCCAUGUGUGCCCGGCGUUAGGACCGGGUUCGCGUGGA [#1 Same State - Tryptophan B Attempt #17 (HarryS)]
34
